# Assay target: ERα (Homo sapiens, UniProt P03372)
# Construct: endogenous in cells; host or cells: MCF-7
# Assay overview: ER degradation in MCF-7 cells (Western blot)
# Type: cell-based
# Condition context: MCF7, Maximal ER degradation, read-out: Dmax
# Description: Degradation of ER in MCF-7 Breast Cancer Cells by Exemplary Compounds of the Present Disclosure MCF-7 cells were plated in 24-well plates at a density of 10^5 cells/well. Media containing various drug concentrations were added on the day following plating (day 0) and allowed to incubate for 24 hours for Western blot. Media with the tested compound was changed every other day. Cells were lysed, snapped frozen in liquid nitrogen, and stored at −80° C. until assay for ERα. […]
Observation type: Dmax

CC/C(=C(\c1ccc(OCCN2CCC(CN3CCN(c4ccc5c(c4)C(=O)N(C4CCC(=O)NC4=O)C5=O)CC3)CC2)cc1)c1ccc(B(O)O)cc1)c1ccccc1 (stereo not drawn): > 75%
CC/C(=C(/c1ccc(O)cc1)c1ccc(N2CCN(C(=O)N3CCN(c4ccc5c(c4)CN([C@@H]4CCC(=O)NC4=O)C5=O)CC3)CC2)cc1)c1ccccc1: > 90%

For the next question, use this molecule.
q: Query: Dmax; subject: CC/C(=C(/c1ccc(B(O)O)cc1)c1ccc(N2CCN(C(=O)N3CCN(c4ccc5c(c4)CN([C@H]4CCC(=O)NC4=O)C5=O)CC3)CC2)cc1)c1ccccc1
a: > 90%

###

# Assay target: ERα (Homo sapiens, UniProt P03372)
# Construct: endogenous in cells; host or cells: MCF-7
# Assay overview: ER degradation in MCF-7 cells (Western blot)
# Type: cell-based
# Condition context: ER degradation, 24 hours
Property: DC50; scope: individual molecules

CC/C(=C(\c1ccc(O)cc1)c1ccc(N2CCN(C(=O)N3CCC(CN4CCN(c5ccc6c(c5)CN(C5CCC(=O)NC5=O)C6=O)CC4)CC3)CC2)cc1)c1ccccc1 (stereo not shown): < 10 nM

q: Query: DC50; subject: CC/C(=C(\c1ccc(B(O)O)cc1)c1ccc(N2CCC(CNC3CCN(c4ccc5c(c4)C(=O)N(C4CCC(=O)NC4=O)C5=O)CC3)CC2)cc1)c1ccccc1 (stereo not shown)
a: < 10 nM

q: Query: DC50; subject: CC/C(=C(/c1ccc(B(O)O)cc1)c1ccc(N2CCC(CCCN3CCN(c4ccc5c(c4)C(=O)N(C4CCC(=O)NC4=O)C5=O)CC3)CC2)cc1)c1ccccc1 (stereo not shown)
a: < 10 nM

q: Query: DC50; subject: CC/C(=C(/c1ccc(OCCN2CCN(CCCN3CCN(c4ccc5c(c4)C(=O)N(C4CCC(=O)NC4=O)C5=O)CC3)CC2)cc1)c1ccc(B(O)O)cc1)c1ccccc1 (stereo not shown)
a: < 10 nM

q: Query: DC50; subject: CC/C(=C(/c1ccc(OCCN2CCC(CCN3CCN(c4ccc5c(c4)C(=O)N(C4CCC(=O)NC4=O)C5=O)CC3)CC2)cc1)c1ccc(B(O)O)cc1)c1ccccc1 (stereo not shown)
a: < 10 nM

q: Query: DC50; subject: CC/C(=C(\c1ccc(OCCN2CCN(c3ccc4c(c3)C(=O)N(C3CCC(=O)NC3=O)C4=O)CC2)cc1)c1ccc(B(O)O)cc1)c1ccccc1 (stereo not shown)
a: 10 to 50 nM

q: Query: DC50; subject: CC/C(=C(/c1ccc(OCCN2CCC(CCN3CCN(c4ccc5c(c4)CN(C4CCC(=O)NC4=O)C5=O)CC3)CC2)cc1)c1ccc(B(O)O)cc1)c1ccccc1 (stereo not shown)
a: 10 to 50 nM

###

# Assay target: ER (Homo sapiens)
# Construct: endogenous in cells; host or cells: T47d-kb-Luc (T47D stably transfected with a luciferase reporter gene only)
# Assay overview: ER antagonism (T47D ERE luciferase), T47d-kb-Luc cells
# Type: cell-based
# Condition context: read-out: IC50 (ER antagonistm)
pIC50: −log10 of the molar value.
Property: pIC50; scope: individual compounds

Below: 2 compounds and their reported pIC50.
CC/C(=C(\c1ccc(OCCN2CCC(CCN3CCN(c4ccc5c(c4)C(=O)N(C4CCC(=O)NC4=O)C5=O)CC3)CC2)cc1)c1ccc(B(O)O)cc1)c1ccccc1 (stereo not shown): < 7.30
CC/C(=C(\c1ccc(OCCN2CCN(CCC3CCN(c4ccc5c(c4)C(=O)N(C4CCC(=O)NC4=O)C5=O)CC3)CC2)cc1)c1ccc(B(O)O)cc1)c1ccccc1 (stereo not shown): 7.30 to 8.00

q: Query: pIC50; subject: CC/C(=C(/c1ccc(OCCN2CCN(CC3CCN(c4ccc5c(c4)CN(C4CCC(=O)NC4=O)C5=O)CC3)CC2)cc1)c1ccc(B(O)O)cc1)c1ccccc1 (stereo not shown)
a: > 8.00

q: Query: pIC50; subject: CC/C(=C(\c1ccc(O)cc1)c1ccc(N2CCN(C(=O)N3CCN(c4ccc5c(c4)CN([C@H]4CCC(=O)NC4=O)C5=O)CC3)CC2)cc1)c1ccccc1
a: > 8.00

q: Query: pIC50; subject: CC/C(=C(\c1ccc(B(O)O)cc1)c1ccc(N2CCN(CCCN3CCN(c4ccc5c(c4)CN(C4CCC(=O)NC4=O)C5=O)CC3)CC2)cc1)c1ccccc1 (stereo not shown)
a: > 8.00

###

# Assay target: ERα (Homo sapiens)
# Construct: endogenous in cells; host or cells: MCF-7
# Assay overview: ER degradation in MCF-7 cells (Western blot)
# Format: cell-based
# Condition context: ER degradation, 24 hours
Property: DC50; scope: individual compounds

CC/C(=C(/c1ccc(B(O)O)cc1)c1ccc(N2CCN(CCCC3CCN(c4ccc5c(c4)C(=O)N(C4CCC(=O)NC4=O)C5=O)CC3)CC2)cc1)c1ccccc1 (centres unmarked): < 10 nM

q: Query: DC50; subject: CC/C(=C(\c1ccc(OCCN2CCC(C3CCN(c4ccc5c(c4)C(=O)N(C4CCC(=O)NC4=O)C5=O)CC3)CC2)cc1)c1ccc(B(O)O)cc1)c1ccccc1 (centres unmarked)
a: < 10 nM

###

# Assay target: ER (Homo sapiens, UniProt P03372)
# Construct: endogenous in cells
# Assay overview: ER antagonism (T47D ERE luciferase), T47d-kb-Luc cells
# Condition context: read-out: IC50 (ER antagonistm)
Observation type: IC50

Below: 4 compounds and their reported IC50.
CC/C(=C(/c1ccc(OCCCCCN2CCN(c3ccc4c(c3)CN(C3CCC(=O)NC3=O)C4=O)CC2)cc1)c1ccc(B(O)O)cc1)c1ccccc1 (centres unmarked) [Compound 35]: 10 to 50 nM
CC/C(=C(/c1ccc(B(O)O)cc1)c1ccc(N2CCC(CCCN3CCN(c4ccc5c(c4)C(=O)N(C4CCC(=O)NC4=O)C5=O)CC3)CC2)cc1)c1ccccc1 (centres unmarked) [Compound 52]: 10 to 50 nM
CC/C(=C(/c1ccc(OCCN2CCN(C(=O)N3CCN(c4ccc5c(c4)CN([C@@H]4CCC(=O)NC4=O)C5=O)CC3)CC2)cc1)c1ccc(B(O)O)cc1)c1ccccc1 [Compound 85]: < 10 nM
CC/C(=C(/c1ccc(OCCN2CCN(CCCNc3ccc4c(c3)C(=O)N(C3CCC(=O)NC3=O)C4=O)CC2)cc1)c1ccc(B(O)O)cc1)c1ccccc1 (centres unmarked) [Compound 15]: 10 to 50 nM

For the next question, use this compound.
q: Query: IC50; subject: CC/C(=C(\c1ccc(B(O)O)cc1)c1ccc(N2CCC(CCN3CCN(c4ccc5c(c4)C(=O)N(C4CCC(=O)NC4=O)C5=O)CC3)CC2)cc1)c1ccccc1 (centres unmarked) [Compound 63]
a: 10 to 50 nM

###

# Assay target: ERα (Homo sapiens)
# Construct: endogenous in cells; host or cells: MCF-7
# Sequence (P03372 1-595): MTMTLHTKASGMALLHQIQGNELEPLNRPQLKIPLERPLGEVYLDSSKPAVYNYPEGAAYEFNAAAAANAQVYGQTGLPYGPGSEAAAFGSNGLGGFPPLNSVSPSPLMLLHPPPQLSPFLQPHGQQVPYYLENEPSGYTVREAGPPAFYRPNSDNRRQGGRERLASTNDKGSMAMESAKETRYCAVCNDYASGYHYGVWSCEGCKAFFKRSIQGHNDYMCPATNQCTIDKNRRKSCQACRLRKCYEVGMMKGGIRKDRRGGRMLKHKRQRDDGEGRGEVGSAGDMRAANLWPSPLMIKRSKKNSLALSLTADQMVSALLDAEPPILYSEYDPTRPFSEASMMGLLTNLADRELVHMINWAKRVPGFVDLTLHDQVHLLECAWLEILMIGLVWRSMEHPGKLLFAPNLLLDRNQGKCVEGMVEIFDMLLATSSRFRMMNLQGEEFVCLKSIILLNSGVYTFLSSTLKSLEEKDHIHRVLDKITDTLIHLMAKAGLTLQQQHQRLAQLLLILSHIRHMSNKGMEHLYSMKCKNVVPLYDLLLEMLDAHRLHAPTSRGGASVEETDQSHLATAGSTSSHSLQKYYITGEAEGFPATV
# Assay overview: ER degradation in MCF-7 cells (Western blot)
# Format: cell-based
# Condition context: MCF7, Maximal ER degradation, read-out: Dmax
Observation type: Dmax

CC/C(=C(\c1ccc(B(O)O)cc1)c1ccc(N2CCN(CCCC3CCN(c4ccc5c(c4)CN(C4CCC(=O)NC4=O)C5=O)CC3)CC2)cc1)c1ccccc1 (stereo not shown): > 90%
CC/C(=C(/c1ccc(OCCN2CCN(C(=O)N3CCN(c4ccc5c(c4)CN(C4CCC(=O)NC4=O)C5=O)CC3)CC2)cc1)c1ccc(B(O)O)cc1)c1ccccc1 (stereo not shown): > 90%
CC/C(=C(/c1ccc(O)cc1)c1ccc(OCCN2CCN(C(=O)N3CCN(c4ccc5c(c4)CN([C@H]4CCC(=O)NC4=O)C5=O)CC3)CC2)cc1)c1ccccc1: > 90%
CC/C(=C(\c1ccc(B(O)O)cc1)c1ccc(N2CCC(CCCN3CCN(c4ccc5c(c4)CN(C4CCC(=O)NC4=O)C5=O)CC3)CC2)cc1)c1ccccc1 (stereo not shown): > 90%
CC/C(=C(/c1ccc(OCCN2CCC(CCN3CCN(c4ccc5c(c4)C(=O)N(C4CCC(=O)NC4=O)C5=O)CC3)CC2)cc1)c1ccc(B(O)O)cc1)c1ccccc1 (stereo not shown): > 90%
CC/C(=C(\c1ccc(B(O)O)cc1)c1ccc(C2CCN(CCCN3CCN(c4ccc5c(c4)CN(C4CCC(=O)NC4=O)C5=O)CC3)CC2)cc1)c1ccccc1 (stereo not shown): > 90%
CC/C(=C(\c1ccc(OCCN2CCN(CCC3CCN(c4ccc5c(c4)C(=O)N(C4CCC(=O)NC4=O)C5=O)CC3)CC2)cc1)c1ccc(B(O)O)cc1)c1ccccc1 (stereo not shown): > 90%
CC/C(=C(\c1ccc(OCCN2CCN(C(=O)N3CCN(c4ccc5c(c4)CN([C@H]4CCC(=O)NC4=O)C5=O)CC3)CC2)cc1)c1ccc(B(O)O)cc1)c1ccccc1: > 90%
CC/C(=C(\c1ccc(B(O)O)cc1)c1ccc(N2CCN(CCCC3CCN(c4ccc5c(c4)C(=O)N(C4CCC(=O)NC4=O)C5=O)CC3)CC2)cc1)c1ccccc1 (stereo not shown): > 75%
CC/C(=C(/c1ccc(B(O)O)cc1)c1ccc(C2CCN(CCCN3CCN(c4ccc5c(c4)CN(C4CCC(=O)NC4=O)C5=O)CC3)CC2)cc1)c1ccccc1 (stereo not shown): > 90%

q: Query: Dmax; subject: CC/C(=C(/c1ccc(OCCN2CCN(C(=O)N3CCC(CN4CCN(c5ccc6c(c5)CN(C5CCC(=O)NC5=O)C6=O)CC4)CC3)CC2)cc1)c1ccc(B(O)O)cc1)c1ccccc1 (stereo not shown)
a: > 90%

q: Query: Dmax; subject: CC/C(=C(/c1ccc(B(O)O)cc1)c1ccc(N2CCC(CNC3CCN(c4ccc5c(c4)C(=O)N(C4CCC(=O)NC4=O)C5)CC3)CC2)cc1)c1ccccc1 (stereo not shown)
a: > 90%

q: Query: Dmax; subject: CC/C(=C(\c1ccc(OCCN2CCC(C3CCN(c4ccc5c(c4)C(=O)N(C4CCC(=O)NC4=O)C5=O)CC3)CC2)cc1)c1ccc(B(O)O)cc1)c1ccccc1 (stereo not shown)
a: > 90%

q: Query: Dmax; subject: CC/C(=C(\c1ccc(B(O)O)cc1)c1ccc(N2CCN(CCCN3CCN(c4ccc5c(c4)C(=O)N(C4CCC(=O)NC4=O)C5=O)CC3)CC2)cc1)c1ccccc1 (stereo not shown)
a: > 90%

q: Query: Dmax; subject: CC/C(=C(/c1ccc(O)cc1)c1ccc(N2CCN(C(=O)N3CCN(c4ccc5c(c4)CN(C4CCC(=O)NC4=O)C5=O)CC3)CC2)cc1)c1ccccc1 (stereo not shown)
a: > 90%

q: Query: Dmax; subject: CC/C(=C(\c1ccc(B(O)O)cc1)c1ccc(N2CCN(CCN3CCN(c4ccc5c(c4)CN(C4CCC(=O)NC4=O)C5=O)CC3)CC2)cc1)c1ccccc1 (stereo not shown)
a: > 90%

q: Query: Dmax; subject: CC/C(=C(\c1ccc(OCCN2CCN(CCN3CCN(c4ccc5c(c4)C(=O)N(C4CCC(=O)NC4=O)C5=O)CC3)CC2)cc1)c1ccc(B(O)O)cc1)c1ccccc1 (stereo not shown)
a: > 90%

q: Query: Dmax; subject: CC/C(=C(/c1ccc(B(O)O)cc1)c1ccc(N2CCN(CCC3CCN(c4ccc5c(c4)CN(C4CCC(=O)NC4=O)C5=O)CC3)CC2)cc1)c1ccccc1 (stereo not shown)
a: > 90%

q: Query: Dmax; subject: CC/C(=C(/c1ccc(OCCCCCN2CCN(c3ccc4c(c3)CN(C3CCC(=O)NC3=O)C4=O)CC2)cc1)c1ccc(B(O)O)cc1)c1ccccc1 (stereo not shown)
a: > 90%

q: Query: Dmax; subject: CC/C(=C(\c1ccc(B(O)O)cc1)c1ccc(N2CCC(CN3CCN(c4ccc5c(c4)C(=O)N(C4CCC(=O)NC4=O)C5=O)CC3)CC2)cc1)c1ccccc1 (stereo not shown)
a: > 90%

q: Query: Dmax; subject: CC/C(=C(/c1ccc(OCCN2CCN(CC3CCN(c4ccc5c(c4)CN([C@H]4CCC(=O)NC4=O)C5=O)CC3)CC2)cc1)c1ccc(B(O)O)cc1)c1ccccc1
a: > 90%

q: Query: Dmax; subject: CC/C(=C(/c1ccc(B(O)O)cc1)c1ccc(N2CCN(CCCN3CCN(c4ccc5c(c4)CN(C4CCC(=O)NC4=O)C5=O)CC3)CC2)cc1)c1ccccc1 (stereo not shown)
a: > 90%
